# System: CEM cells HIV-1 protection, formazan growth assay
# PROTOCOL_DETAILS: NCI AIDS Antiviral Assay;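 active = compounds giving half or more protection of infected cells from virus-caused growth loss, again on retest; inactive = the rest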
Give your call using only these classes: active, inactive

How was C=CCn1cnc2c(=O)[nH]c(Nc3ccccc3)nc21 classified in this test?
inactive

###

# Test system: CEM cells HIV-1 protection, formazan growth assay
# PROTOCOL_DETAILS: NCI AIDS Antiviral Assay
# Method: The ability of compounds to protect human CEM cells from HIV-1 infection is measured as a screen for new compounds capable of inhibiting the HIV virus. Five concentrations of drug were tested on uninfected and infected cells and cell growth was measured using a soluble formazan assay. […] Compounds that provided at least 50% protection were retested. Compounds that provided at least 50% protection on retest were listed as moderately active. […]
ASSAY_ENDPOINT: EC50

Example entries begin here.
Given CCN(CC)CCNC(=O)c1nn(-c2ccc(C)cc2)c2c1N(C)S(=O)(=O)c1ccccc1-2 , state its recorded EC50.
> 77.6 µM

Given OC(CNc1ccccn1)c1ccccc1 (stereo not given) , state its recorded EC50.
> 200 µM

Given Cc1ccccc1C1=C/C(=C(\SS/C(C(=O)c2ccc(OCC(=O)O)c(Cl)c2Cl)=C2\C=C(c3ccccc3C)SS2)C(=O)c2ccc(OCC(=O)O)c(Cl)c2Cl)SS1 , state its recorded EC50.
> 26.9 µM

Given CCC1N2CCCCC2[C@@H]2c3[nH]c4ccccc4c3CCN12 (stereo not given in full) , state its recorded EC50.
> 447 µM

Given CCN(CC)Cc1nc2sc3c(c2c(=O)n1-c1ccccc1)CCCC3 , state its recorded EC50.
> 200 µM

Given COC(=O)C(Cc1cn(C(C)n2cc(CC(NC(C)=O)C(=O)OC)c3ccccc32)c2ccccc12)NC(C)=O (stereo not given) , state its recorded EC50.
> 81.3 µM

Given O=C(Cc1ccccc1)N=Nc1c(O)[nH]c2ccccc12 , state its recorded EC50.
> 200 µM

Given CCN(CC)C1Oc2cc3c(cc2C(c2cccc(OC)c2OC)C1C)OCO3 (stereo not given) , state its recorded EC50.
> 200 µM

Continuing:
Given Nc1[nH]n(-c2ccccc2)c(=O)c1/C=N/C(=S)NC1CCCCC1 , state its recorded EC50.
> 100 µM

Given Oc1cccc2c(Br)ccnc12 , state its recorded EC50.
> 20 µM

Given Cc1cccc2c1[C@]13OC(C)[C@]4(C)CC5OC(=O)[C@@]1(C)[C@@H]5[C@]34C(=O)O2 (stereo not given in full) , state its recorded EC50.
> 200 µM

###

# Tested on: CEM cells HIV-1 protection, formazan growth assay
# PROTOCOL_DETAILS: NCI AIDS Antiviral Assay
# TEST_PARAMETERS: measured here: growth of uninfected CEM cells
Where a SMILES comes first, the peptide text is derived from it. [ ]: non-standard residue; d: D form. ΔPro = O=C(O)[CH]1C=CCN1
ASSAY_ENDPOINT: IC50 (µM)
Value expressed in µM; do not type the unit.

Provide the documented IC50 with CEM cells HIV-1 protection, formazan growth assay as the system for O=C(O)C1C=CCN1C(=O)C1C=CCN1C(=O)C1C=CCN1 (centres undefined) (H-[ΔPro]-[ΔPro]-[ΔPro]-OH; configuration not given here)
166

Provide the documented IC50 with CEM cells HIV-1 protection, formazan growth assay as the system for C[N+]12C=CC=C1C(N1CCCC1)c1scc(-c3ccccc3)c12 (centres undefined)
17.8

Continuing:
Provide the documented IC50 with CEM cells HIV-1 protection, formazan growth assay as the system for OC(CC(O)(C(F)(F)F)C(F)(F)F)c1cccs1 (centres undefined)
93.3

Provide the documented IC50 with CEM cells HIV-1 protection, formazan growth assay as the system for S=C(Nc1ccc2c3c(cccc13)CC2)Nc1ccc2c3c(cccc13)CC2
42.7

Provide the documented IC50 with CEM cells HIV-1 protection, formazan growth assay as the system for CCC1(O)C(=O)OCc2c1cc1n(c2=O)Cc2cc3cc4c(cc3nc2-1)OCO4 (centres undefined)
0.00562

Data provenance is PubChem BioAssay AID179.
